Assay: Selectivity index, ratio of maximum non-toxic concentration for human Caco-2 cells to MIC for antifungal activity against Candida glabrata ATCC 66032
Type: toxicity
Settings: read-out: Selectivity Index
measurement-type: selectivity ratio

1) Cc1nc(-c2ccc(C(C)(C)C)cc2)sc1-c1nnc(N[C@@H]2CCCC[C@@H]2N)o1 (relative stereo) ... ≤ 64

* * *

Test: Selectivity index, ratio of CC50 for African green monkey Vero cells to MIC for antifungal activity against fluconazole-resistant Candida auris 381
Assay type: toxicity
Settings: read-out: Selectivity Index
measurement-type: selectivity ratio

1. Cc1nc(-c2ccc(C(C)(C)C)cc2)sc1-c1nnc(N[C@@H]2CCCC[C@@H]2N)o1 (relative stereo) ... ≤ 64
